# Test system: BT-549 breast
# Experimental Details: NCI-60 one-dose screen, 48 h (100 = growth as untreated, 0 = no growth, -100 = all killed)
# Stated Conditions: 10 µM
About 83,000 compounds went through this panel and 20% of them were active in at least one assay; those are over-represented in the sample as a whole.
Quantity Kind: growth (%)

* Clc1ccc(/C=C2\CCCC3C2=Nc2ccccc2NC3c2ccc(Cl)cc2)cc1 (stereo not drawn) | 83
* C[C@@H](O)[C@H]1C(=O)N2C(C(=O)O)=C(SC3CN[C@H](C(=O)N(C)C)C3)[C@H](C)[C@H]12 (stereo partly drawn) | 105
* CC(C)(C)OC(=O)N1CCc2c(sc3ncnc(N/N=C/c4ccccc4Br)c23)C1 | 92.3

Reference for the values: PubChem BioAssay (NCI)
